Ref: PubChem BioAssay AID504332

Target: Histone-lysine N-methyltransferase EHMT2 (Homo sapiens)
Test: qHTS Assay for Inhibitors of Histone Lysine Methyltransferase G9a; note: nearly all actives have a fitted effect of over 75% in size
Conditions: G9a H3K9 monomethylation, AlphaScreen, 2 h; series mostly up to 59 µM
The campaign covered roughly 350,000 compounds. About 31,000 (8.9%) were called active. Roughly 15% stayed inconclusive and do not appear here. Calls come from the whole dose curve; as a rule, active = well fitted inhibition curve with a large enough effect; inconclusive = small, poorly fitted or top-dose-only effect; inactive = no such curve, though single readings can be large or run the other way. This excerpt belongs to a sample that is enriched for actives.
Labels: yes = active, no = inactive

compound	assigned-class
COc1ccc(CNC(=O)C2=Cc3cccc(OC)c3OC2)cc1OC	no
CCN(CCCNC(=O)Cn1ncc2c3ccccc3n(C)c2c1=O)Cc1ccccc1	no
CCOC(=O)c1ccc(N2C(=O)CC(N3CC(C)OC(C)C3)C2=O)cc1 (stereo not given)	no
COc1ccc(Nc2ncnc3ccc(Br)cc23)c(OC)c1	no
C/C(=N\NC(=O)Cc1ccc(Cl)cc1)c1ccccn1	no
Cc1ccc(/C=N/NC(=S)Nc2cccc(S(=O)(=O)N(C)C)c2)o1	yes
COc1ccc(CCNc2ncnc3onc(-c4ccc(Cl)cc4)c23)c(OC)c1	no
CCOc1ccc(OCC)c(NC(=O)c2c(C)nn(-c3ccccc3)c2-n2cccc2)c1	no
COc1cccc(-c2noc(C3CCCN(C(=O)c4ccc(F)cc4)C3)n2)c1 (stereo not given)	no
Cc1cc(C)cc(NC(=S)NCc2ccc(F)cc2)c1	no
COc1ccc(-n2nc(C(=O)NCC(=O)N3CCCCCC3)c3ccccc3c2=O)cc1Cl	no
CCOC(=O)C1CCN(c2ccc(C(=O)O)cc2[N+](=O)[O-])CC1	no
O=C(O)CCC(=O)NCc1ccc2[nH]c3c(c2c1)CCCC3	yes
Cc1cccc(NC(=S)NCc2ccc3[nH]c4c(c3c2)CCCC4)c1	yes
Cc1nn(-c2nc(-c3ccccc3)cc(C(F)(F)F)n2)c(C)c1Cl	no
COc1ccc(N2C(=O)CC(N3CCC(C(N)=O)CC3)C2=O)cc1 (stereo not given)	yes
Fc1ccc(CN2CCc3nc(Nc4ccccc4)ncc3C2)cc1F	no
O=C1CCCN1C(=O)COc1ccc([N+](=O)[O-])cc1	no
CCC1=Nc2cc(C(=O)NCCCOC(C)C)ccc2Sc2ccc(C)cc21	no
Cc1cc(C(F)(F)F)n2ncc(-c3ccccc3)c2n1	no

###

Target: Histone-lysine N-methyltransferase EHMT2 (Homo sapiens)
Assay: qHTS Assay for Inhibitors of Histone Lysine Methyltransferase G9a; note: nearly all actives have a fitted effect of over 75% in size
Details: G9a H3K9 monomethylation, AlphaScreen, 2 h; series mostly up to 59 µM
Among all 350,000 compounds or so, about 31,000 (8.9%) were called active. About 15% were inconclusive and are not listed. Calls follow the shape of the dose curve; as a rule, active = well fitted inhibition curve with a large enough effect; inconclusive = small, poorly fitted or top-dose-only effect; inactive = no such curve, though single readings can be large or run the other way. The sample holds actives, similar compounds and a random draw of the others, so the mix is not that of the screen.
Labels: t = active, f = inactive

compound	assigned-class
CCN(CC)c1ccc2cc(C(N)=O)/c(=N\NC(=O)c3ccncc3)oc2c1	f
Cc1cc(C)cc(NC(=O)CCCc2nc(-c3ccccc3Cl)no2)c1	f
O=C(CSc1ncc(CO)n1Cc1ccc(F)cc1)NCc1ccco1	f
CCN(CC)c1ccc2c(Nc3ccccc3)c(C=O)c(=O)oc2c1	f
O=C(O)CCC(=O)N(Cc1cccs1)Cc1cccs1	t
CSc1nc(=O)c2c(n1C)NC(=O)CC2c1ccccc1OC(C)C (stereo not given)	f
O=C(c1ccc(Cl)cc1)n1nc(-c2cccnc2)nc1NCc1ccc(F)cc1	f
O=C(CSCc1cnn(-c2ccccc2)c1-n1cccc1)NCc1ccccc1Br	f
O=C1C(=O)N(CCN2CCOCC2)C(c2ccccn2)/C1=C(/O)c1ccc(Cl)cc1 (stereo not given)	t
COc1ccc(N2CCN(Cc3nc4c(c(=O)[nH]c(=O)n4C)n3Cc3ccc(Cl)cc3)CC2)cc1	f

###

Target: Histone-lysine N-methyltransferase EHMT2 (Homo sapiens)
Assay: qHTS Assay for Inhibitors of Histone Lysine Methyltransferase G9a; note: nearly all actives have a fitted effect of over 75% in size; for activity, negative = inhibition: % is set by controls: 0 for no effect and ±100 for the full control effect
Settings: G9a H3K9 monomethylation, AlphaScreen, 2 h; series mostly up to 59 µM
In all, about 350,000 compounds went through this assay and about 31,000 (8.9%) were called active. About 15% were inconclusive and are not listed. For the sample, actives were picked, then their nearest neighbours and some compounds at random.
measured-metric: activity, negative = inhibition

molecule	measured-metric	test-result
CN(CC(=O)Nc1ccc(Cl)cc1)CC(=O)Nc1cccc2ccccc12	activity, negative = inhibition	-44.6% [at 12.7 µM] (inactive)
CC(=O)N1CCN(C(=O)c2cc(-c3ccc(C)o3)nc3ccccc23)CC1	activity, negative = inhibition	-3.86% [at 0.501 µM] (inactive)
CCc1noc(C)c1C(=O)N1CCN(S(=O)(=O)c2cccc(C(F)(F)F)c2)CC1	activity, negative = inhibition	9.9% [at 12.7 µM] (inactive)
O=C(c1c(F)cccc1F)N1CCN(S(=O)(=O)c2ccc3c(c2)OCCO3)CC1	activity, negative = inhibition	-0.69% [at 0.501 µM] (inactive)
Cc1ccc(NC(=O)CSc2nc(=O)n(CCN(C)C)c3c2CCCC3)c(C)c1	activity, negative = inhibition	6.7% [at 0.501 µM] (inactive)
OCC[C@H]1C[C@H](O)[C@@H](O)[C@]2(CCc3ccccc3O2)O1	activity, negative = inhibition	7.67% [at 2.33 µM] (inactive)
CC1(C)O[C@@H]2[C@H](O1)[C@@H](COS(=O)(=O)O)O[C@H]2n1ccc(=O)[nH]c1=O	activity, negative = inhibition	2.02% [at 2.33 µM] (inactive)
CCC(C)N(C(=O)CSc1ncnc2c1cnn2-c1ccccc1)C1CCS(=O)(=O)C1 (configuration not stated)	activity, negative = inhibition	17.2% [at 2.33 µM] (inactive)
CCN(CC(=O)NCc1cccs1)C(=O)/C=C/c1ccc(C)cc1	activity, negative = inhibition	9.99% [at 12.7 µM] (inactive)
CC1CCN(C(=O)c2cccc(S(=O)(=O)N3CCCc4ccccc43)c2)CC1	activity, negative = inhibition	10.4% [at 2.33 µM] (inactive)
CNS(=O)(=O)c1cccc(C(=O)OCC(=O)N2c3ccccc3NC(=O)C2(C)C)c1	activity, negative = inhibition	10.5% [at 12.7 µM] (inactive)
Cc1ccc(OCCNC(=O)CN2C(=O)NC3(CCCC3)C2=O)cc1	activity, negative = inhibition	19.1% [at 2.33 µM] (inactive)
N#Cc1ccc(C(=O)OCC(=O)NC(=O)NC2CCCCC2)cc1	activity, negative = inhibition	13.4% [at 2.33 µM] (inactive)
CC(C(=O)NC1CCCC1)N1CCN(S(=O)(=O)c2ccccc2Cl)CC1 (configuration not stated)	activity, negative = inhibition	1.28% [at 0.501 µM] (inactive)
CCCCCN(C(=O)CCC(=O)OCC(=O)NC1CCC(C)CC1)c1c(N)n(CCCC)c(=O)[nH]c1=O (configuration not stated)	activity, negative = inhibition	6.8% [at 0.501 µM] (inactive)
CCOc1ccc(NC(=O)CN(C)C(=O)COc2cccc(CC)c2)cc1OCC	activity, negative = inhibition	-17.2% [at 0.501 µM] (inactive)
Cn1c(-c2ccc(F)cc2)cc2onc(-c3ccccc3Cl)c2c1=O	activity, negative = inhibition	20.7% [at 2.33 µM] (inactive)

###

Target: Histone-lysine N-methyltransferase EHMT2 (Homo sapiens)
Experiment: qHTS Assay for Inhibitors of Histone Lysine Methyltransferase G9a; note: nearly all actives have a fitted effect of over 75% in size; note: potency is the fitted concentration of half-maximal effect
Conditions: G9a H3K9 monomethylation, AlphaScreen, 2 h; series mostly up to 59 µM
The campaign covered roughly 350,000 compounds. About 31,000 (8.9%) were called active. Another 15% or so got no clear call; they are omitted. The entries come from a sample that favours actives as a whole.

molecule	Potency
CC(C)N1C(=O)C2C(C(=O)NC3CCCCC3)C3C=CC2(O3)C1C(=O)NC1CCCC1 (stereo unspecified)	inactive
COc1ccc(F)cc1S(=O)(=O)NCC(c1ccc2c(c1)OCO2)N1CCN(C)CC1 (stereo unspecified)	50.1 µM (active)
COc1ccc(Cc2nc3ccc(C(=O)NCC4CCOCC4)cc3o2)cc1OC	inactive
COc1cccc(/C=N/Nc2ccc(Cl)nn2)c1	inactive
Cc1ccc2nc(N3C(=O)C(O)=C(C(=O)c4ccco4)C3c3cccc(O)c3)sc2c1 (stereo unspecified)	31.6 µM (active)
O=C(NCCS(=O)(=O)N1CCN(c2ccc(F)cc2)CC1)c1ccc2c(c1)OCO2	inactive
CC1(C)Cc2ccccc2-c2[nH]c(=S)[nH]c(=O)c21	10 µM (active)
CCOCCCN1C(=O)C2C(C(=O)Nc3ccc(OCC)cc3)C3C=CC2(O3)C1C(=O)NC1CCCCC1 (stereo unspecified)	inactive
Cc1c(-c2cccc(NC(=O)C(C)(C)C)c2)nc2ncccn12	inactive
CCOc1ccc2nc(N3CCC(C(=O)Nc4cc(C)ccc4C)CC3)sc2c1	inactive
Cn1c(=O)n(C)c2cc(C(=O)Nc3ccc4c(c3)OCO4)ccc21	inactive
COc1ccc(-n2nnnc2CNC(=O)c2ccc3ccccc3c2)cc1	inactive
CCNC(=O)N1c2ccccc2Sc2ccccc21	inactive
CN(C)C(=O)c1ccc(NC(=O)COC(=O)c2cc3c(s2)CCCCC3)cc1	3.55 µM (active)
O=C(N/N=C/c1ccc([N+](=O)[O-])cc1)c1c[nH]c2ccccc12	inactive
CN1CCN(c2nc3c(c(=O)[nH]c(=O)n3C)n2Cc2cccc3ccccc23)CC1	25.1 µM (active)
O=C(O)c1ccc(Cn2c(SCc3ccc(F)cc3)nc3ccncc32)cc1	inactive
COc1ccc2[nH]cc(/C=C(/C#N)S(=O)(=O)c3ccccc3)c2c1	inactive
CC(NCC(=O)Nc1cc(Cl)cc(Cl)c1)c1ccccc1 (stereo unspecified)	inactive
CN1CCN(C(CNC(=O)c2ccccc2F)c2ccc3c(c2)OCO3)CC1 (stereo unspecified)	inactive
O=C(C1CCC(=O)N(C2CC2)C1)N1CCN(c2ccc(Cl)cc2)CC1 (stereo unspecified)	inactive
